B1: HDV Ribozyme (parent)
chain: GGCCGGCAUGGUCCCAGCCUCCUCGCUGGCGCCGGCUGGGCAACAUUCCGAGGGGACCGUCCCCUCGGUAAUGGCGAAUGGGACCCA

variants of: B1; experiment: self-cleavage, relative activity (ratio to wild type); higher = more cleavage; co-transcriptional
Lab note: compare self-cleavage against 0.2. Equal or greater, write satisfied. Smaller, write not satisfied.

{"sequence_record": "GGCCGGCAUGGUCCCAGCCUCCUCGCUGGCGCCGGCUGGGCAACAUUCCGAGGGGAUCGUCCCCUCGGUAAUGGCGAAAGGGACCCA [C57U U79A]", "label_value": "satisfied"}
{"sequence_record": "GGCCGGCAUGGUCCCAGCGUGCUCGCUGGCGCCGGCUGGGCAACAUUCCGAGGGGACCGUCCCCUCGGUAAUGGCGAAUGGGACCCA [C19G C21G]", "label_value": "not satisfied"}
{"sequence_record": "GGCCGGCAUGGUCCCAGCCUCCUCGCUGGCGACGGCUGGGCAACAUUCCGAGGGGACCGUCCCCCCGGUAAUGGCGAAUGGGACCCA [C32A U65C]", "label_value": "not satisfied"}
{"sequence_record": "GGCGGGCAUGGUCCCAGCCUCCUCGCUGGCGCCGGCUGGGCAACAUUCCGAGGGGACCCUCCCCUCGGUAAUGGCGAAUGGGACCCA [C4G G59C]", "label_value": "satisfied"}
{"sequence_record": "GGCCGGCAUGGUCCCAGCCUCCUCGCUGGCGCCGGCUGGGCAACAUUCCGAGGUGACCGUCCCCUCGGUAAUGGCGAAUCGGACCCA [G54U G80C]", "label_value": "not satisfied"}
{"sequence_record": "GGCCGGCAUGGUCCCUGCGUCCUCGCUGGCGCCGGCUGGGCAACAUUCCGAGGGGACCGUCCCCUCGGUAAUGGCGAAUGGGACCCA [A16U C19G]", "label_value": "not satisfied"}
{"sequence_record": "GGCCGGCAUGGUCCCAGCCUCCGCGCUGGCGCCGGCUGGGCAACAUUCCGAGGGGACCGUCCCCUCGGUAAUGGCGAAUGGGGCCCA [U23G A83G]", "label_value": "satisfied"}
{"sequence_record": "GGCCGGCAUGGUCACAGCCUCCUCGCUGGCGCCGGCUGGGCAACAUUCCGAGGGGACCGUCCCCUCGGUAAUGGCGAAUGGGACCCA [C14A]", "label_value": "satisfied"}
{"sequence_record": "GCCCGGCAUGGUCCCAGCCUCCUCGCUGGCGCCGGCUGGGCAACAUUCCGAGGGGACCGUCCCCUCGGUUAUGGCGAAUGGGACCCA [G2C A70U]", "label_value": "not satisfied"}
{"sequence_record": "GGCCGGCAUGGUCCCAGCCACCUCGCUGGCGCCGGCUGGGCAACAUUCCGAGGGGAGCGUCCCCUCGGUAAUGGCGAAUGGGACCCA [U20A C57G]", "label_value": "not satisfied"}
{"sequence_record": "GUCCGGCAUGGUCCCAGCCUCCUCGCUGGCGCCGGCUGGGCAACAUUCCGAGGGGACCGUCCCCUCGGUAAUGGCGAAUGGGACCUA [G2U C86U]", "label_value": "not satisfied"}
{"sequence_record": "GGCCGGCAUGGUCCCAGCCACCUCGCUGGCGCCGGCUGGGCAACAUUCCGAGGGGACCGUCCCCUCAGUAAUGGCGAAUGGGACCCA [U20A G67A]", "label_value": "not satisfied"}
{"sequence_record": "GGCCGGCAUGGUCCCAGCCUCCUCGCUGGCGCCGGCUGGGCAAAUUUCCGAGGGGACCGUCCCCUCGGUAAUGGCGAAUGGGACCCA [C44A A45U]", "label_value": "satisfied"}
{"sequence_record": "GGCCGGCAUGGUCCCCGCAUCCUCGCUGGCGCCGGCUGGGCAACAUUCCGAGGGGACCGUCCCCUCGGUAAUGGCGAAUGGGACCCA [A16C C19A]", "label_value": "satisfied"}
{"sequence_record": "AGCCGGCAUGGUCCCAGCCGCCUCGCUGGCGCCGGCUGGGCAACAUUCCGAGGGGACCGUCCCCUCGGUAAUGGCGAAUGGGACCCA [G1A U20G]", "label_value": "not satisfied"}
{"sequence_record": "GGCCGGCAUGGUCCCAGCCUCCUCGCUGGCGGCGGCUGGGCAACAUUCCGAGGGGACCGUCCCCUCGGUAAUGGCUAAUGGGACCCA [C32G G76U]", "label_value": "not satisfied"}
{"sequence_record": "GGCCGGCAUGGGCCCAGCCUCCUCGAUGGCGCCGGCUGGGCAACAUUCCGAGGGGACCGUCCCCUCGGUAAUGGCGAAUGGGACCCA [U12G C26A]", "label_value": "satisfied"}
{"sequence_record": "GGCCGGCAUGGUCCCAGCCUCCUCGCUGGCGCCGGCUGGGCAACAUUCUGAGGGGACCGUCCCCUCAGUAAUGGCGAAUGGGACCCA [C49U G67A]", "label_value": "satisfied"}
{"sequence_record": "GGCCGGCAUGGUCCGAGCCUCCUCGCUGGCGCCGGCUGGGCAACAUUCGGAGGGGACCGUCCCCUCGGUAAUGGCGAAUGGGACCCA [C15G C49G]", "label_value": "satisfied"}
{"sequence_record": "GGCCGGCAUGGUCCCAGCCUCCUCGCUGGCGCCGGCUGGGGAACAUUCCGAGGGGACCGUCCCCUCGGUAAUGGCGUAUGGGACCCA [C41G A77U]", "label_value": "not satisfied"}
{"sequence_record": "GGCCGGCAUGGUCCCAGCCUCCUCGAUGGCGCCGGCUGGGCAACAUUCCGAGGGGACCGUCCCCUCGGUAAUGGCGAAUGGGACCCG [C26A A87G]", "label_value": "satisfied"}
{"sequence_record": "GGCCGGCAUGGUCCCAGCGUCCUCGCUGGCGCCGGCCGGGCAACAUUCCGAGGGGACCGUCCCCUCGGUAAUGGCGAAUGGGACCCA [C19G U37C]", "label_value": "not satisfied"}
{"sequence_record": "GGCCGGCAUGGUCCCAGCCUCCUCGCUGGCGCCGGCUGGGCAACAUUCCGAGGGGACCGUCCCUUCGGUAAGGGCGAAUGGGACCCA [C64U U72G]", "label_value": "satisfied"}
{"sequence_record": "GGCCGGCAUGGUCCCAGCCUCCUCGCUAGCGCCGGCUGGGCAACAUUCCGCGGGGACCGUCCCCUCGGUAAUGGCGAAUGGGACCCA [G28A A51C]", "label_value": "not satisfied"}
{"sequence_record": "GGCCGGCAUGGUCACAGCCUCCUCGCUGGCGCCGGCUGGGCACCAUUCCGAGGGGACCGUCCCCUCGGUAAUGGCGAAUGGGACCCA [C14A A43C]", "label_value": "not satisfied"}
{"sequence_record": "GGCCGGCAUGGUCCCAGCCUCCUCGCUGGCGCCGGCUGGGCAACAUUCCGAGGGGACCGUCCGCUCGGUAAUGGAGAAUGGGACCCA [C63G C75A]", "label_value": "not satisfied"}
{"sequence_record": "GGCCGGCAUGGUCCUAGCCUCCUCGCUGGCGCAGGCUGGGCAACAUUCCGAGGGGACCGUCCCCUCGGUAAUGGCGAAUGGGACCCA [C15U C33A]", "label_value": "not satisfied"}
{"sequence_record": "GGGCGGCAUGGUCCCAUCCUCCUCGCUGGCGCCGGCUGGGCAACAUUCCGAGGGGACCGUCCCCUCGGUAAUGGCGAAUGGGACCCA [C3G G17U]", "label_value": "not satisfied"}
{"sequence_record": "GGCCGGCAUGGUCCCAGCCUCCCCGCUGGCGCCGGCUGGGCAACAUUCCGAGGGGACCGUCCCCUCGGUCAUGGCGAAUGGGACCCA [U23C A70C]", "label_value": "satisfied"}
{"sequence_record": "GGCCGGCAUGGUCCCAGCCUCCUCGCUGGCGCCGGCUGGGCAACAUUCCGAGGGGACCGUCCCUUCGGUAACGGCGAAUGGGACCCA [C64U U72C]", "label_value": "satisfied"}
{"sequence_record": "GGCCGGCAUGGUCCCAGCCUCCUCGCUGGCGCCGGCUGGGCAAAAUUCCGAGGGGACCGUCCCAUCGGUAAUGGCGAAUGGGACCCA [C44A C64A]", "label_value": "satisfied"}
{"sequence_record": "GGCCGGCAUGGUCCCAGCCUCCUCGCUGGAGCCGGCUGGGCAACAUUCCGAGGGGACCGUCCCCUCGGUAAUGGCGAAUGGGACCCC [C30A A87C]", "label_value": "satisfied"}
{"sequence_record": "GGCCGGCAUGGUCCCAGUCUCCUCGCUGGGGCCGGCUGGGCAACAUUCCGAGGGGACCGUCCCCUCGGUAAUGGCGAAUGGGACCCA [C18U C30G]", "label_value": "not satisfied"}
{"sequence_record": "GGCCGGCAUGGUCCCAGCCUCCUCGCUGGCGCCGGCUGGGCAACAUUCCGAGGGGACCGUCCGCUCGGUAAUGGCGAAUGGGACCCG [C63G A87G]", "label_value": "satisfied"}
{"sequence_record": "GGCCGGCAUGGUCCCAGCCUGCUCGCUGGCGCCGGCUGGGCAACUUUCCGAGGGGACCGUCCCCUCGGUAAUGGCGAAUGGGACCCA [C21G A45U]", "label_value": "not satisfied"}
{"sequence_record": "GGCCGGCAUGGUCCCAGCCUCCUCGCUGGCGCCGGCUGGUCAACAUUCCGAGGGGACCGUCCCCUCGGUAAUGGCGAAUGGGACCCA [G40U]", "label_value": "satisfied"}
{"sequence_record": "GGCCGGCAUGGUCCCAGCCUCCUCGCUGGCGCCGGCUGGGCAACAUUCCGAGGGGACCGUCCCCUCGGUAAUGGCUAAGGGGACCCA [G76U U79G]", "label_value": "satisfied"}
{"sequence_record": "GGCCGGCAUGGUCCCAGCCUCCUCGCUGGCGCCGGCUGGGCAACAUUCCGAGGGGACCGUCCCCUCGGUAGUGGCGUAUGGGACCCA [A71G A77U]", "label_value": "satisfied"}
{"sequence_record": "GGCCGGCAUGGUCCCAGCCUCCUCGCUGGCGCCGGCUGAGCAACAUGCCGAGGGGACCGUCCCCUCGGUAAUGGCGAAUGGGACCCA [G39A U47G]", "label_value": "not satisfied"}
{"sequence_record": "GGCCGGCAUGGUCCCAGCCUCCUCGCUGGCGCCGGCUGGGCAACGUUCCGAGGGGACCGUCCCCUCGGUAAUGGCGACUGGGACCCA [A45G A78C]", "label_value": "satisfied"}
{"sequence_record": "GGCCGUCAUGGUCCCAGCCUCCUCGCUGGCGCCGGCUGGGCAACAUUCCGAGGGCACCGUCCCCUCGGUAAUGGCGAAUGGGACCCA [G6U G55C]", "label_value": "satisfied"}
{"sequence_record": "GGCCGGCAUGGUCCCAGCCUCCUCGCUGGCGCCGGUUGGGCAACAUUCCGAGGGGACCGUCCCCUUGGUAAUGGCGAAUGGGACCCA [C36U C66U]", "label_value": "satisfied"}
{"sequence_record": "UGCCGGCAUGGUCCCAGCCUGCUCGCUGGCGCCGGCUGGGCAACAUUCCGAGGGGACCGUCCCCUCGGUAAUGGCGAAUGGGACCCA [G1U C21G]", "label_value": "satisfied"}
{"sequence_record": "GGCCGGCAUGGUGCCAGCCUCCUCGCUGGCGCCGGCUGGUCAACAUUCCGAGGGGACCGUCCCCUCGGUAAUGGCGAAUGGGACCCA [C13G G40U]", "label_value": "not satisfied"}
